tested on: HCMV Strain AD169 in MRC-5 cells; experiment: Viral qPCR assay HCMV (V0/V1, V2/V3), EC50; type: cell-based; conditions: Human betaherpesvirus 5, AD169, MRC5, viral qPCR assay of Example 191; read-out: HCMV Cell (EC50)
Observable: pEC50
pEC50 is a log-scale quantity: -log10 of the concentration expressed in molar.

Can you share its pEC50? I mean this compound: `CC(C)n1cc(-c2c[n+]([O-])c(C(=O)NCc3ccc(Cl)cc3)cc2O[C@H]2CCN3C(=O)OC[C@@H]3C2)cn1`
7.01

Reported pEC50, compound `Cn1cc(-c2cnc(C(=O)NCc3ccc(Cl)cc3)cc2O[C@H]2CCN3C(=O)OC[C@@H]3C2)cn1` : ____
6.97

Consider the compound shown here: `O=C(NCc1ccc(Cl)cc1)c1cc(O[C@H]2CCN3C(=O)OC[C@@H]3C2)c(CNC2CC2)cn1` What is its recorded pEC50?
6.26

Can you share its pEC50? I mean this compound: `Cc1c[n+]([O-])c(C(=O)NCc2ccc(Cl)cc2)cc1O[C@H]1CCN2C(=O)OC[C@@H]2C1`
6.25

Form field: reported pEC50 of CCCn1cc(-c2cnc(C(=O)NCc3ccc(Cl)cc3)cc2O[C@H]2CCN3C(=O)OC[C@@H]3C2)cn1 (racemic)
6.44

Look at this compound and give its reported pEC50. `CC(C)(O)Cn1cc(-c2cnc(C(=O)NCc3ccc(Cl)cc3)cc2O[C@H]2CCN3C(=O)OC[C@@H]3C2)cn1`
6.40

Which pEC50 value is on record for `CC(=O)N1CCC(Oc2cc(C(=O)NCc3ccc(Cl)cc3)ncc2-c2nnc(C)s2)CC1` ?
6.11

Query: pEC50; subject: `CN(Cc1cnc(C(=O)NCc2ccc(Cl)cc2)cc1O[C@H]1CCN2C(=O)OC[C@@H]2C1)[C@H]1CCOC1`
6.60

If you can, please state the reported pEC50 value of `CC(=O)N1CCC(Oc2cc(C(=O)NCc3ccc(Cl)cc3)ncc2-c2cn(C)c(C)n2)CC1` .
6.43

Find the recorded pEC50 belonging to `CC(=O)N1CCC(Oc2cc(C(=O)NCc3ccc(Cl)cc3)ncc2-c2cnn(C)n2)CC1` and report it.
6.26

What value of pEC50 has been reported for the following compound? `CC(=O)N1CCC(Oc2cc(C(=O)NCc3ccc(Cl)cc3)ncc2-c2cnc(C)o2)CC1`
6.60

Any idea what its pEC50 is? The compound is `O=C(NCc1ccc(Cl)cc1)c1cc(O[C@H]2CCN3C(=O)OC[C@@H]3C2)c(-c2cnn(CC(F)F)c2)cn1`
6.86

Bench note: what pEC50 did `COC(C)(C)Cc1cnc(C(=O)NCc2ccc(Cl)cc2)cc1O[C@H]1CCN2C(=O)OC[C@@H]2C1` show?
6.26

Can you look up the measured pEC50 of `CC(C)(O)C1CN(c2cnc(C(=O)NCc3ccc(Cl)cc3)cc2O[C@H]2CCN3C(=O)OC[C@@H]3C2)C1` for me?
6.59

What value of pEC50 has been recorded for this entry: `CC(=O)N1CCC(Oc2cc(C(=O)NCc3ccc(Cl)cc3)ncc2-c2cnn(CCO)c2)CC1`
5.80

* * *

biological target: Human cytomegalovirus DNA polymerase (Human cytomegalovirus, UniProt P08546); construct: made in house; host or cells: SF21 insect cells (baculovirus vector); assay: HCMV polymerase assay (AlphaLISA, IC50); format: biochemical; conditions: polymerase assay of Example 190
Sequence (P08546 whole entry): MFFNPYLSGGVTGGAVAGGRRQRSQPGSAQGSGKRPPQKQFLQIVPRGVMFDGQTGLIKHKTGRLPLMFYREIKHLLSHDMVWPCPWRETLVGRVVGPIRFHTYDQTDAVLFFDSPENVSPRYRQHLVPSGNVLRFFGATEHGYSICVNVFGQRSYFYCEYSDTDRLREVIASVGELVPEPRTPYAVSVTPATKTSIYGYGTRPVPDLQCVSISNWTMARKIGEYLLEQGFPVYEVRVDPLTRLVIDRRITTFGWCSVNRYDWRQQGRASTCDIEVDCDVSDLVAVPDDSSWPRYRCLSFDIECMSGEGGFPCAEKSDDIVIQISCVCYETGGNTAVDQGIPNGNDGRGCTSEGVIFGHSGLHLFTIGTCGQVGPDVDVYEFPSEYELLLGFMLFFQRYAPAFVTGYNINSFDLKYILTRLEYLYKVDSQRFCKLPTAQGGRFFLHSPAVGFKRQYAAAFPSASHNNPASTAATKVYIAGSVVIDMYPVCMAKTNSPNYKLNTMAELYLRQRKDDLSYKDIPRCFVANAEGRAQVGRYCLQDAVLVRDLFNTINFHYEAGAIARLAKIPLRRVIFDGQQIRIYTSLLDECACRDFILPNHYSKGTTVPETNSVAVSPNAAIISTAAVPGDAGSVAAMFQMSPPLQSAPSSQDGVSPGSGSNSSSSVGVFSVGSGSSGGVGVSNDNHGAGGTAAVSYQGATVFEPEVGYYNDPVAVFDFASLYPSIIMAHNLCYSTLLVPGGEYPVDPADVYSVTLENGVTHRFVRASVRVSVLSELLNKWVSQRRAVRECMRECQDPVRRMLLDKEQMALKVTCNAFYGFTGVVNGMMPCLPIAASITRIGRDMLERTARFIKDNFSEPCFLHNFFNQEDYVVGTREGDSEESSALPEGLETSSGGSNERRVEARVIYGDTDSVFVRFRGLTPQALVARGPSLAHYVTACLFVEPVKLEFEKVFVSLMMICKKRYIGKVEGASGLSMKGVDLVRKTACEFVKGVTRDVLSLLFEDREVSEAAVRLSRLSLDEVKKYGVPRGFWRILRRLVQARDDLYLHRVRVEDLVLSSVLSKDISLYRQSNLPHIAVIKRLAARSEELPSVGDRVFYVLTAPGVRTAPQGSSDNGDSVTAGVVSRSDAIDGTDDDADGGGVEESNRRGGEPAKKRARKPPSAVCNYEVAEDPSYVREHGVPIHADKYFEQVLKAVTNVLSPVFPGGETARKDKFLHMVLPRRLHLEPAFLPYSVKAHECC
For each record, write down the corresponding pIC50.
pIC50 is defined as minus the log10 of a concentration measured in mol/L.

Need pIC50, item `Cc1cc(-c2cnc(C(=O)NCc3ccc(Cl)cc3)cc2O[C@H]2CCN3C(=O)OC[C@@H]3C2)on1`
8.11

If you can, please state the reported pIC50 value of COC/C=C/c1cnc(C(=O)NCc2ccc(Cl)cc2)cc1O[C@H]1CCN2C(=O)OC[C@@H]2C1 [Compound 155b] .
8.07

Look up pIC50 for this compound: `O=C(NCc1ccc(Cl)cc1)c1cc(O[C@H]2CCN3C(=O)OC[C@@H]3C2)c(CCn2cccn2)cn1`
6.76

What value of measured pIC50 is listed for Cn1cc(-c2cnc(C(=O)NCc3ccc(Cl)cc3)cc2O[C@H]2CCN3C(=O)COC[C@@H]3C2)cn1 (racemic) ?
6.82

Which pIC50 value belongs to O=C(NCc1ccc(Cl)cc1)c1cc(O[C@H]2CCN3C(=O)OC[C@@H]3C2)c(-c2cnc(CO)o2)cn1 [Compound 148b] ?
8.72

Which pIC50 value belongs to `O=C(NCc1ccc(Cl)cc1)c1cc(O[C@H]2CCN3C(=O)OC[C@@H]3C2)c(-c2cnn(C(F)F)c2)cn1` ?
7.99

Entry `O=C(NCc1ccc(Cl)cc1)c1cc(O[C@H]2CCN3C(=O)OC[C@@H]3C2)c(-c2cnco2)cn1` has what pIC50?
8.80
